Form field: KIM127 (Expression relative to IgG4) (one value per entry).
# measured.target: human Mac-1 (integrin αMβ2, CD11b/CD18) (human, UniProt P11215 17-1152; P05107 23-769)
# measurement.notes: flow cytometry, HEK293/Mac-1 cells, PBS/MnCl2 (Mn2+), 10 µg/ml of this antibody; binding of reporter mAb KIM127 read
measured.attribute: KIM127 (Expression relative to IgG4)

- anti-Mac-1 antibody clone 28A12 (antibody, human IgG4, V domains shown) VH: QVKLQESGPELVKPGASVKISCKASGYSFTDYNMNWVKQSNGKSLEWIGEINPGYGTSRYNQKFKDKATLTVDQSSSTAYMQLNSLTSEDSAVYYCARADVDYGDTMDYWGQGTTVTVSS VL: DIELTQSPAIMSASPGEKVTMTCSASSSVSDMHWYQQKSGNSPKRWIYDTSKLASGVPVRFSGSGSGTSYSLTISSMEAEDAATYYCQQWSSNPPTFGAGTKLELK: 0.87 relative to IgG4
- anti-Mac-1 antibody clone 24G05 (antibody, human IgG4, V domains shown) VH: EVQLVESGGGLVQPGGSLRLSCAASGFTFTSYWMTWVRQAPGKGLEWVSTIVGGGGEADYADSVKGRFTISRDNSKNTLYLQMNSLRAEDTAVYYCARDYVADNHGAMDYWGQGTLVTVSS VL: DIQMTQSPSSLSASVGDRVTITCRASQGLSSYLNWYQQKPGKAPKLLIYGMSTLQSGVPSRFSGSGSGTDFTLTISSLQPEDFATYYCMQYYHWPYTFGQGTKVEIK: 1.64 relative to IgG4
- anti-Mac-1 antibody clone 28D06 (antibody, human IgG4, V domains shown) VH: QVKLQQSGPELVKPGASVKISCKASGYSFTDYNMNWVKQSNGKSLEWIGEINPNYGTTRYNQKFKGKATLTVDQSSSTAYMQLNSLTSEDSAVYYCARPSIYYDYDDAMDYWGQGTTVTVSS VL: DIELTQSPAIMSASPGEKVTMTCSASSSVNYMYWYQQKPGSSPRLLIYDTSNLASGVPVRFSGSGSGTSYSLTISRMEAEDAATYYCQQWITYPPTLTFGAGTKLEIK: 0.69 relative to IgG4
